// molecules with pKi on Substance-P receptor (Homo sapiens), multi-source literature
Sequence (P25103 whole entry): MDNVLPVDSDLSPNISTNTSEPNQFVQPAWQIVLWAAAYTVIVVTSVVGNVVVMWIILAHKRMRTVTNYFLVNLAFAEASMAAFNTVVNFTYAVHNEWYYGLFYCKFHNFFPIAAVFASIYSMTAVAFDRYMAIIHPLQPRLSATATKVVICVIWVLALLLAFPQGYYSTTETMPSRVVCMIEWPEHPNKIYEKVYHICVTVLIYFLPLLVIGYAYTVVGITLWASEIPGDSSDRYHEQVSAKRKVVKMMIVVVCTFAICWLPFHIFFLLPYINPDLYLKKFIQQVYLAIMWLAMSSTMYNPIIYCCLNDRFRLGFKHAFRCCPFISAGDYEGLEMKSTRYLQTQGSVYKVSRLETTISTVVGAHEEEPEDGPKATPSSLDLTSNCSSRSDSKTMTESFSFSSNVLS
Notebook: values listed as pKi are -log10 of the concentration (mol/L).

Q. # lookup: Substance-P receptor (Homo sapiens) pKi, key = CC1c2ccccc2NCCN1C(=O)N(C)Cc1cc(C(F)(F)F)cc(C(F)(F)F)c1 (stereo unspecified)
A. 7.40

Q. Send back Substance-P receptor (Homo sapiens) pKi of CO/N=C(\CN(C)C(=O)c1cncc(Br)c1)C(CCN1CCC(O)(c2ccccc2)CC1)c1ccc(Cl)c(Cl)c1 (stereo unspecified) only.
A. 8.15

Q. Recall the reported pKi of CN1C(=O)C2CN(Cc3cccs3)C3(CCN(C(=O)c4cc(C(F)(F)F)cc(C(F)(F)F)c4)CC3)C2C1=O (stereo unspecified) on Substance-P receptor (Homo sapiens) and write it down.
A. 6.29

Q. State the measured pKi (Substance-P receptor (Homo sapiens)) of `Cc1ccccc1-c1cnccc1C(=O)N(C)Cc1cc(C(F)(F)F)cc(C(F)(F)F)c1`
A. 8.34

Q. // fetch pKi for CO/N=C(\COCc1cc(C(F)(F)F)cc(C(F)(F)F)c1)C(CCN1CCC(CN2CCCC(CC(O)CO)C2=O)CC1)c1ccc(Cl)c(Cl)c1 (stereo unspecified) ; system: Substance-P receptor (Homo sapiens)
A. 8.15

Q. For Substance-P receptor (Homo sapiens), give the measured pKi of the entry CN(C(=O)C(C)(C)c1cc(C(F)(F)F)cc(C(F)(F)F)c1)c1cnc(N2CCCC(O)C2)cc1-c1ccccc1Cl (stereo unspecified)
A. 8.76

Q. Give pKi only, for CO/N=C(\COCc1cc(C(F)(F)F)cc(C(F)(F)F)c1)C(CCN1CCC(CN2CCCC(OC(=O)NC(C)C)C2)CC1)c1ccc(Cl)c(Cl)c1 (stereo unspecified) , using Substance-P receptor (Homo sapiens) data.
A. 7.77

Q. Quote Substance-P receptor (Homo sapiens) pKi for entry O=C1C2CN(C(=O)c3sc4ccccc4c3Cl)C3(CCNCC3)C2C(=O)N1Cc1cc(C(F)(F)F)cc(C(F)(F)F)c1 (stereo unspecified) .
A. 6.30

Q. # assay system Substance-P receptor (Homo sapiens): give pKi of `O=C(c1cc(C(F)(F)F)cc(C(F)(F)F)c1)N1CCC2(CC1)NC(=O)N(Cc1ccc3c(c1)OCO3)C2=O`
A. 6.61

Q. Answer briefly: pKi recorded on Substance-P receptor (Homo sapiens) for CO/N=C(\COCc1cc(C(F)(F)F)cc(C(F)(F)F)c1)C(CCN1CCC(N2CCC(OC(=O)NC(C)C)C2)CC1)c1ccc(Cl)c(Cl)c1 (stereo unspecified)
A. 7.72

Q. Fetch value of pKi on Substance-P receptor (Homo sapiens) for CO/N=C(\CN(C)C(=O)c1cc(C)cc(C)c1)C(CCN1CCC(O)(c2ccccc2)CC1)c1ccc(Cl)c(Cl)c1 (stereo unspecified) .
A. 9.00
